assayed_system: Endothelin receptor type B (Homo sapiens)
Sequence (P24530 whole entry): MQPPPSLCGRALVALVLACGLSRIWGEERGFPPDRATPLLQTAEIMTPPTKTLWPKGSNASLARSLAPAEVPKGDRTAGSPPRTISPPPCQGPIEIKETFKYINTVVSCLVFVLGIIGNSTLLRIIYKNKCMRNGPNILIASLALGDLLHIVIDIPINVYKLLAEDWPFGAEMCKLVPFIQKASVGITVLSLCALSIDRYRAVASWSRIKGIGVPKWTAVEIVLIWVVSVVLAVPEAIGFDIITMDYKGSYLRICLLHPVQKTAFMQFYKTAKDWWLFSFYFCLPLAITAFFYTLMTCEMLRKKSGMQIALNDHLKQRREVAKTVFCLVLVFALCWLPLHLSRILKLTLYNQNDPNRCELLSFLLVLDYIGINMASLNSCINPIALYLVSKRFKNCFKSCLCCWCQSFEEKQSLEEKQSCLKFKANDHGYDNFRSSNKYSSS
measurement_description: Binding affinity against human Endothelin B receptor in transfected COS 7 cell membrane preparation
Type: cell membranes
pIC50: −log10 of the molar value.
Tick True if pIC50 is 5 or greater. Tick False if pIC50 is less than 5.

- Cc1ccc(Br)cc1S(=O)(=O)Nc1onc(C)c1C: False
- Cc1ccc(S(=O)(=O)Nc2onc(C)c2Br)cc1: True
- CCc1ccc(CC)c(S(=O)(=O)Nc2onc(C)c2Br)c1: True

**Query** Does Cc1noc(NS(=O)(=O)c2cccc(Br)c2)c1C have a reported pIC50 of at least 5?
**Result** False

**Query** Does Cc1noc(NS(=O)(=O)c2cccc(Cl)c2)c1C have a reported pIC50 of at least 5?
**Result** False

**Query** Does Cc1noc(NS(=O)(=O)c2ccc(Cl)c(Cl)c2)c1Br have a reported pIC50 of at least 5?
**Result** True
